- Test system: male Fischer 344 rats
- EXPERIMENT: Urine volume after a single i.p. dose
- Format: in vivo
- EXPERIMENTAL PARAMETERS: dose 1.0 (head mg/kg; text mmol/kg), i.p. in corn oil, mean ± SE, N = 3–4
Marks after values point to notes of the source that are not given here.
# Twenty-four-hour urine volume per entry
METRIC: Twenty-four-hour urine volume

[[record]]
compound = "O=C1CSC(=O)N1c1cc(C(F)(F)F)cc(C(F)(F)F)c1"
experimental_value = "23.5 ± 1.8*,^h ml"

[[record]]
compound = "O=C1CSCN1c1cc(Cl)cc(Cl)c1"
experimental_value = "12.3 ± 1.0*,^c ml"

[[record]]
compound = "O=C1CSC(=O)N1c1ccccc1"
experimental_value = "22.6 ± 0.4*,^e ml"

[[record]]
compound = "O=C1CSC(=O)N1c1ccc(Cl)cc1"
experimental_value = "15.3 ± 2.7*,^c ml"

[[record]]
compound = "Cc1cc(C)cc(N2C(=O)CSC2=O)c1"
experimental_value = "11.3 ± 2.5*,^a ml"

[[record]]
compound = "O=C1SCCN1c1cc(Cl)cc(Cl)c1"
experimental_value = "4.4 ± 1.3^d ml"

[[record]]
compound = "CC1SC(=O)N(c2cc(Cl)cc(Cl)c2)C1=O (stereo not shown)"
experimental_value = "10.8 ± 1.3*,^a ml"


Taken from paper PMC3175016.
